biological target: HDAC1 (Homo sapiens); assay: HDAC biochemical activity measurement (fluorescent substrate deacetylation); conditions: Table 3, column C; read-out: IC50 HDAC1, C (six-membered ring with substituents);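 further: fluorogenic acetyl-lysine substrate (20 µM) deacetylated by HDAC1, then developer releases fluorophore read at 360 nm excitation and 460 nm emission, inhibitor incubated 30 min at 37 °C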
Sequence (Q13547 whole entry, species assumed): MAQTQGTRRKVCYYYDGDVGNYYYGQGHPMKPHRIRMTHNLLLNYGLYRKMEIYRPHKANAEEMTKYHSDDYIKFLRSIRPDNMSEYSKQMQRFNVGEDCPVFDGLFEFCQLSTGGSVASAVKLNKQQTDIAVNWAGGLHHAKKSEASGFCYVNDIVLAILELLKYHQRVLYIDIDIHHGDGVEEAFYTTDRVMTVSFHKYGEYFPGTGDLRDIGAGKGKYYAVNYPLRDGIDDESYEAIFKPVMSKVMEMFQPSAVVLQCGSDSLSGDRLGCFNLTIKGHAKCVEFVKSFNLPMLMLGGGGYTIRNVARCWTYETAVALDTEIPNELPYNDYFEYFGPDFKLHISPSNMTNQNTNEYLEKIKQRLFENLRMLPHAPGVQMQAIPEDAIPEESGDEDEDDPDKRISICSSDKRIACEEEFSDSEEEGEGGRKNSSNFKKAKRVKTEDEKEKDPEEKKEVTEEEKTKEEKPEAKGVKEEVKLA
Catalogue of pIC50 values
Please report pIC50 as the negative decimal logarithm of the molar concentration, giving only the number.

// worked examples, pIC50 included
{"compound": "C/C=C1\\NC(=O)c2nc(ccc2F)CNC(=O)C[C@@H](/C=C/CCSC(=O)CCCCCC)OC(=O)[C@H](C(C)C)NC1=O", "pIC50": 7.64}
{"compound": "C/C=C1\\NC(=O)c2nc(ccc2F)CNC(=O)C[C@@H](/C=C/CCSC(C)=O)OC(=O)[C@H](CCCCN)NC1=O", "pIC50": 7.19}
{"compound": "C/C=C1\\NC(=O)c2cc(F)cc(n2)CNC(=O)C[C@@H](/C=C/CCSC(C)=O)OC(=O)[C@H](CCCCNC(=O)OCC2c3ccccc3-c3ccccc32)NC1=O", "pIC50": 7.29}

IN: So what does the record say about pIC50 for C/C=C1\NC(=O)c2nc(ccc2F)CNC(=O)C[C@@H](/C=C/CCSC(=O)CCCCC)OC(=O)[C@H](C(C)C)NC1=O ?
OUT: 7.96

IN: Next up: C=C1NC(=O)c2nc(ccc2F)CNC(=O)C[C@@H](/C=C/CCSC(C)=O)OC(=O)[C@H](C(C)C)NC1=O
OUT: 7.38
